- System: PXR homodimer (NR concentration 270 nM)
- Assay explanation: PBM binding z-score (relative to random genomic background probes); higher = stronger binding; sequences stand for … in GC…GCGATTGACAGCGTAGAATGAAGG
Range-based classes on measured PBM binding z-score: bottom: < -0.1; middle: ≥ -0.1 and < 0.3; top: ≥ 0.3

Prompt line: Determine which band this sequence sits in: "TCTAGTTGGTCACGGATGTCACACACGACGGGTA"
Response line: bottom

Prompt line: Let us now turn to "ACTAGCAGGCCAAGGGTCACTCAAGATTAGTCCG"
Response line: bottom

Prompt line: Let us now turn to "CCTAGCAGGCTAATCTGGGTCACTCAAGGCTTGA"
Response line: bottom

Prompt line: Let us now turn to "CGTCCAAGCTCATAGGAGGTCAGTGAAGACAGAT"
Response line: top

We next turn to a different sequence, shown below.
Prompt line: Determine which band this sequence sits in: "AGTCAAAGTTCATCTAGGTAACGTAAGATATGCT"
Response line: top

---

- Tested on: PPARa:RXRa (NR concentration 270 nM, RXRa partner concentration 90 nM)
- Assay explanation: PBM binding z-score (relative to random genomic background probes); higher = stronger binding; sequences stand for … in GC…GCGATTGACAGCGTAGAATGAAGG
Measured quantity: PBM binding z-score

These solved cases illustrate the format of a correct answer.
Prompt line: Query (sequence): "ATCTCTAGGTAAGACTCAGTACAGTGAAGAACGC" ; field requested: PBM binding z-score
Response line: 0.1

Prompt line: Let us now turn to "TAGCCTAGGTCATTGGCCCAGTATAGTACGCATC"
Response line: 3.53

Prompt line: Let us now turn to "TCTAGTTGGTCAGGGAGGTCACACACGACGGGTA"
Response line: 3.72

Prompt line: Let us now turn to "CTACCAAGGAGAACAAGGTCGTTGATTACTATTC"
Response line: 0.978

Prompt line: Let us now turn to "TCTTGTAGATCAATAGAGGTTCAGAAAGTGCGCT"
Response line: 0.663

Prompt line: Let us now turn to "CCTACTGGGCTATTCAGAGGTCATTGATCATATG"
Response line: 3.44

Further cases:
Prompt line: Query (sequence): "CTACCAAGATGAACAAGGTCGTTGATTACTATTC" ; field requested: PBM binding z-score
Response line: 1.09

Prompt line: Let us now turn to "CCTTACGGATCACTGACAGGTTATAGCATTTGGA"
Response line: 0.447

Prompt line: Let us now turn to "GCAGACAGGTGAAACTCAGGTAACTCAGGGTGGC"
Response line: 1.13

---

Recorded PBM binding z-score, one value per entry.
- Tested on: RARa homodimer (NR concentration 270 nM)
- Assay explanation: PBM binding z-score (relative to random genomic background probes); higher = stronger binding; sequences stand for … in GC…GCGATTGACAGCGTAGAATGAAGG
// no unit string in output, number only

Prompt line: Query (sequence): "AATACAGGGTCATCGTAGGCCATAGTACGCACAG" ; field requested: PBM binding z-score
Response line: 0.832

Prompt line: Let us now turn to "CGTCCAAGGTCATAGGAGGTCAGTGTAGACAGAT"
Response line: 1.57

Prompt line: Let us now turn to "CCTACTGGGCCAAAAAGGTCATTGGTGCCGATAA"
Response line: 0.489

Prompt line: Let us now turn to "ATCGAAAGGTCGAGGTGAGTATGGAGAAAGGGAA"
Response line: 0.528

Prompt line: Let us now turn to "TAGGCTAGGTCATGGGCCAGTATACCACGCGAAC"
Response line: 0.534

Prompt line: Let us now turn to "AGTCAAAGTTCACTATGTAACGTAAGATTCAGCT"
Response line: 0.755

Turning now to a further sequence:
Prompt line: Query (sequence): "CGAACTAGGTCAAGGACAGTGGATCTCCGCACGC" ; field requested: PBM binding z-score
Response line: 0.0729

---

- Tested on: RARa homodimer (NR concentration 270 nM)
- Assay explanation: PBM binding z-score (relative to random genomic background probes); higher = stronger binding; sequences stand for … in GC…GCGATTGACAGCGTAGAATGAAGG
Please note: Criterion met applies when PBM binding z-score is 0.6 or greater, and Criterion not met applies otherwise.

Take a look at these entries with their results.
Prompt line: Assess whether reported PBM binding z-score for "CCAGACAGTTGAAAGGTAACTCAGTCTGGTACGC" sits at 0.6 or higher.
Response line: Criterion not met

Prompt line: Let us now turn to "CGTCAAAGTTCTACTAAGGTAACGTAAAGCACGC"
Response line: Criterion not met

Prompt line: Let us now turn to "CCTCGGAGGACAACAGGAGGTCAGGGCTGCCAGA"
Response line: Criterion met

Prompt line: Let us now turn to "TCATATAGGTACACAGGTGAAAGTCCGTAAGTTA"
Response line: Criterion met

Prompt line: Let us now turn to "CAAACTAGGTCAAGAGGTCATAGTCCGCTTCCCG"
Response line: Criterion met

Prompt line: Let us now turn to "ATATGTAGGTTACATCCGGGTGATTCAGGCTATG"
Response line: Criterion not met

We next turn to a different sequence, shown below.
Prompt line: Assess whether reported PBM binding z-score for "CGGCCAAGGTCATAGGAGGTCAGTGAAGACAGAT" sits at 0.6 or higher.
Response line: Criterion met

---

- Test system: PPARg homodimer (NR concentration 180 nM)
- Assay explanation: PBM binding z-score (relative to random genomic background probes); higher = stronger binding; sequences stand for … in GC…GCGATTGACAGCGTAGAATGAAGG
Recorded PBM binding z-score, one value per entry.
// no unit string in output, number only

These solved cases illustrate the format of a correct answer.
Prompt line: Query (sequence): "TAGCCTAGGTTAGATCGGGCCAGTATACGCTATA" ; field requested: PBM binding z-score
Response line: -0.958

Prompt line: Let us now turn to "CCAGACAGGTGACAAGGTAACTCAGCCTCGATTA"
Response line: 0.918

Prompt line: Let us now turn to "GCGACTGGGGCTAAGCAGGTTACCATAAGGTTGG"
Response line: -0.237

Prompt line: Let us now turn to "CCTGCTAGGGCATGGTCAGCTAATCTACAGTATG"
Response line: -0.604

Prompt line: Let us now turn to "CCTACTGGGCCACAAAGGTCATTGATGCCGATAA"
Response line: 3.95

Prompt line: Let us now turn to "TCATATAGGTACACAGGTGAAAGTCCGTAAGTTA"
Response line: 1.23

Prompt line: Let us now turn to "CCTAATGGGCCAAAGGTCATTGATTCCAATGCTC"
Response line: 4.32

Prompt line: Let us now turn to "CAAACTAGGTCACGAAAGGTCTAAGTCGAATGAC"
Response line: 2.76

Prompt line: Let us now turn to "ACTTACGGGTCAACCAGGTTATAGCACGCGTATA"
Response line: 4.29

Prompt line: Let us now turn to "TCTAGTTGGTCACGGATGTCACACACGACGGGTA"
Response line: 1.14

Further cases:
Prompt line: Query (sequence): "TCTAGCAGGCCAGAGGGTCAGTCAAGAGGTACGG" ; field requested: PBM binding z-score
Response line: 0.21

Prompt line: Let us now turn to "CTCGAAAGGTCGTGCTCAGGAGAGTATACCAAAC"
Response line: 0.909

---

- Test system: PPARg:RXRa (NR concentration 180 nM, RXRa partner concentration 90 nM)
- Assay explanation: PBM binding z-score (relative to random genomic background probes); higher = stronger binding; sequences stand for … in GC…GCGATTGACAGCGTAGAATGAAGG
Recorded PBM binding z-score, one value per entry.
// no unit string in output, number only

Prompt line: Form field - read-out: PBM binding z-score; system: PPARg:RXRa (NR concentration 180 nM, RXRa partner concentration 90 nM); submitted item: "CCAACTGGGCCACGAAAGGTCATTGATTCAGTGA"
Response line: 4.7

Prompt line: Let us now turn to "AATACAGCGTCATCGTAGGCCAGAGTACGCACAG"
Response line: 0.716

Prompt line: Let us now turn to "TCTTTTAGATCAATAGAGGTTAAGAAAGTGCGCT"
Response line: 0.209

Prompt line: Let us now turn to "AGAACGAGGGCAATGAGTTGATTGCACGGGTGGC"
Response line: 1.15

Prompt line: Let us now turn to "TCGTGTAGGTTAGGGGCATTCAGAATGGCGTCGA"
Response line: 0.371

Further cases:
Prompt line: Form field - read-out: PBM binding z-score; system: PPARg:RXRa (NR concentration 180 nM, RXRa partner concentration 90 nM); submitted item: "ACTATTAGTTGACTCAGGGCAACCGATACGACGC"
Response line: 0.893

Prompt line: Let us now turn to "CGAACTAGGTCAAGGATAGTGAATCTCCGCACGC"
Response line: 7.74

Prompt line: Let us now turn to "ACTAGCAGGCCAAGTTTGGGTCACGCAAACAAAG"
Response line: 0.556

Prompt line: Let us now turn to "TCGAGTAGTTTAGTCGGGGCATTCAGCCAACATA"
Response line: -0.694
